Data origin: the supplement of paper PMC10307832

In this section we review reported relative viability values for a set of compounds.
# System: HCC-827
# measurement-protocol: relative viability (nuclei count vs DMSO), 5 days (fraction); higher = more cells survive
# condition-details: first compound 1.265 µM
Lab note: write the figure by itself, no unit.

// known answers, use as guide
compound: O=C(O)c1ccc(-c2c[nH]c3ncc(-c4ccccc4)cc23)cc1C1CCCC1 + C[C@@H](Oc1cc(-c2cnn(C3CCNCC3)c2)cnc1N)c1c(Cl)ccc(F)c1Cl [Crizotinib] (partner 1 µM)
relative viability: 0.724

compound: O=C(O)c1ccc(-c2c[nH]c3ncc(-c4ccccc4)cc23)cc1C1CCCC1 + COc1cc2c(Oc3ccc(NC(=O)C4(C(=O)Nc5ccc(F)cc5)CC4)cc3F)ccnc2cc1OCCCN1CCOCC1 [Foretinib] (partner 0.25 µM)
relative viability: 0.543

Lab note: next compound to report on.
Could you share which relative viability value was measured for O=C(O)c1ccc(-c2c[nH]c3ncc(-c4ccccc4)cc23)cc1C1CCCC1 + CC(=O)c1c(C)c2cnc(Nc3ccc(N4CCNCC4)cn3)nc2n(C2CCCC2)c1=O [Palbociclib] (partner 0.5 µM) ?
0.328

---

# Test system: NCI-H1437
# measurement-protocol: relative viability (nuclei count vs DMSO), 5 days (fraction); higher = more cells survive
# condition-details: first compound 0.253 µM
relative viability strictly under 0.9 means true (1); at 0.9 or over means false (0).

Illustrative cases are given below, each with its answer.
compound: C=C1C(=O)O[C@@H](CCCCCCCC)[C@@H]1C(=O)O [C-75] + N=C(N)NC(=N)NCCc1ccccc1 [Phenformin] (partner 250 µM)
assigned-label: true (1)
--
compound: Oc1nc(-c2ccc(C(F)(F)F)cc2)nc2c1CSCC2 [XAV939] + N=C(N)NC(=N)NCCc1ccccc1 [Phenformin] (partner 250 µM)
assigned-label: true (1)
--
compound: Oc1nc(-c2ccc(C(F)(F)F)cc2)nc2c1CSCC2 [XAV939] + Nc1nc2[nH]cc(CCc3ccc(C(=O)N[C@@H](CCC(=O)O)C(=O)O)cc3)c2c(=O)[nH]1 [Pemetrexed] (partner 0.2 µM)
assigned-label: true (1)
--
compound: C=C1C(=O)O[C@@H](CCCCCCCC)[C@@H]1C(=O)O [C-75] + COc1cc2c(Oc3ccc(NC(=O)C4(C(=O)Nc5ccc(F)cc5)CC4)cc3F)ccnc2cc1OCCCN1CCOCC1 [Foretinib] (partner 0.25 µM)
assigned-label: false (0)

Quick check: relative viability of Oc1nc(-c2ccc(C(F)(F)F)cc2)nc2c1CSCC2 [XAV939] + CCNC(=O)c1noc(-c2cc(C(C)C)c(O)cc2O)c1-c1ccc(CN2CCOCC2)cc1 [Luminespib] (partner 0.01 µM) under 0.9?
false (0)

---

Overview of recorded relative viability for various molecules
# System: BEN
# measurement-protocol: relative viability (nuclei count vs DMSO), 5 days (fraction); higher = more cells survive
# condition-details: first compound 0.8 µM

Answered examples (4):
molecule: Oc1nc(-c2ccc(C(F)(F)F)cc2)nc2c1CSCC2 [XAV939] + Nc1ncn([C@H]2C[C@H](O)[C@@H](CO)O2)c(=O)n1 [Decitabine] (partner 2 µM)
relative viability: 0.763
--
molecule: C=C1C(=O)O[C@@H](CCCCCCCC)[C@@H]1C(=O)O [C-75] + NC(=O)Nc1cc(-c2cccc(F)c2)sc1C(=O)N[C@H]1CCCNC1 [AZD7762] (partner 0.2 µM)
relative viability: 0.589
--
molecule: Oc1nc(-c2ccc(C(F)(F)F)cc2)nc2c1CSCC2 [XAV939] + N=C(N)NC(=N)NCCc1ccccc1 [Phenformin] (partner 250 µM)
relative viability: 0.264
--
molecule: C=C1C(=O)O[C@@H](CCCCCCCC)[C@@H]1C(=O)O [C-75] + Cc1nc(NC(=O)N2CCC[C@H]2C(N)=O)sc1-c1ccnc(C(C)(C)C(F)(F)F)c1 [Alpelisib] (partner 2 µM)
relative viability: 0.953

Turning to the following molecule.
For the record Oc1nc(-c2ccc(C(F)(F)F)cc2)nc2c1CSCC2 [XAV939] + Cc1nc(Nc2ncc(C(=O)Nc3c(C)cccc3Cl)s2)cc(N2CCN(CCO)CC2)n1 [Dasatinib] (partner 0.075 µM) , what value of relative viability is listed for BEN?
0.32

---

# Test system: HCC-827
# measurement-protocol: relative viability (nuclei count vs DMSO), 5 days (fraction); higher = more cells survive
# condition-details: first compound 0.03162 µM
quantity-measured: relative viability
Number, no unit, nothing else.

Sample answers from the record:
compound: NC(=O)Nc1cc(-c2cccc(F)c2)sc1C(=O)N[C@H]1CCCNC1 [AZD7762] + CS(=O)(=O)N1CCN(Cc2cc3nc(-c4cccc5[nH]ncc45)nc(N4CCOCC4)c3s2)CC1 [Pictilisib] (partner 1 µM)
tgt: HCC-827
relative viability: 0.962

compound: NC(=O)Nc1cc(-c2cccc(F)c2)sc1C(=O)N[C@H]1CCCNC1 [AZD7762] + O=C(CCCCCCC(=O)Nc1ccccc1)NO [Vorinostat] (partner 1 µM)
tgt: HCC-827
relative viability: 0.947

compound: NC(=O)Nc1cc(-c2cccc(F)c2)sc1C(=O)N[C@H]1CCCNC1 [AZD7762] + COc1cccc2cc(-c3nc([C@H]4CC[C@H](C(=O)O)CC4)n4ncnc(N)c34)[nH]c12 [OSI-027] (partner 0.5 µM)
tgt: HCC-827
relative viability: 0.802

We now examine a further compound.
GET /values?readout=relative viability&item= NC(=O)Nc1cc(-c2cccc(F)c2)sc1C(=O)N[C@H]1CCCNC1 [AZD7762] + C[C@]1(O)C[C@@H](c2nc(-c3ccc4ccc(-c5ccccc5)nc4c3)c3c(N)nccn32)C1 [Linsitinib] (partner 1 µM)
0.994

---

# System: NCI-H2170
# measurement-protocol: relative viability (nuclei count vs DMSO), 5 days (fraction); higher = more cells survive
# condition-details: first compound 1 µM
quantity-measured: relative viability
Just the number, please, no unit after it.

Use the examples below as a reference point.
compound: NC(=O)Nc1cc(-c2cccc(F)c2)sc1C(=O)N[C@H]1CCCNC1 [AZD7762] + COc1cccc2cc(-c3nc([C@H]4CC[C@H](C(=O)O)CC4)n4ncnc(N)c34)[nH]c12 [OSI-027] (partner 0.5 µM)
tgt: NCI-H2170
relative viability: 0.707

compound: NC(=O)Nc1cc(-c2cccc(F)c2)sc1C(=O)N[C@H]1CCCNC1 [AZD7762] + CC1(C)CCC(c2ccc(Cl)cc2)=C(CN2CCN(c3ccc(C(=O)NS(=O)(=O)c4ccc(N[C@H](CCN5CCOCC5)CSc5ccccc5)c(S(=O)(=O)C(F)(F)F)c4)cc3)CC2)C1 [Navitoclax] (partner 0.5 µM)
tgt: NCI-H2170
relative viability: 0.584

compound: NC(=O)Nc1cc(-c2cccc(F)c2)sc1C(=O)N[C@H]1CCCNC1 [AZD7762] + O=C(c1cc(Cc2n[nH]c(=O)c3ccccc23)ccc1F)N1CCN(C(=O)C2CC2)CC1 [Olaparib] (partner 8 µM)
tgt: NCI-H2170
relative viability: 0.254

Consider the additional compound presented here.
Field request: relative viability | item: NC(=O)Nc1cc(-c2cccc(F)c2)sc1C(=O)N[C@H]1CCCNC1 [AZD7762] + Nc1nc2[nH]cc(CCc3ccc(C(=O)N[C@@H](CCC(=O)O)C(=O)O)cc3)c2c(=O)[nH]1 [Pemetrexed] (partner 0.2 µM)
0.21

---

# Test system: SW 1573
# measurement-protocol: relative viability (nuclei count vs DMSO), 5 days (fraction); higher = more cells survive
# condition-details: first compound 0.03162 µM
Below is a list of entries, each paired with its recorded relative viability value.
# respond with the number and nothing more

In the examples that follow, each entry is paired with its recorded relative viability.
compound: NC(=O)Nc1cc(-c2cccc(F)c2)sc1C(=O)N[C@H]1CCCNC1 [AZD7762] + Cc1nc(NC(=O)N2CCC[C@H]2C(N)=O)sc1-c1ccnc(C(C)(C)C(F)(F)F)c1 [Alpelisib] (partner 2 µM)
quantity-measured: relative viability
reading: 0.807
//
compound: NC(=O)Nc1cc(-c2cccc(F)c2)sc1C(=O)N[C@H]1CCCNC1 [AZD7762] + CC1(C)CCC(c2ccc(Cl)cc2)=C(CN2CCN(c3ccc(C(=O)NS(=O)(=O)c4ccc(N[C@H](CCN5CCOCC5)CSc5ccccc5)c(S(=O)(=O)C(F)(F)F)c4)cc3)CC2)C1 [Navitoclax] (partner 0.5 µM)
quantity-measured: relative viability
reading: 1.12
//
compound: NC(=O)Nc1cc(-c2cccc(F)c2)sc1C(=O)N[C@H]1CCCNC1 [AZD7762] + C[C@]1(O)C[C@@H](c2nc(-c3ccc4ccc(-c5ccccc5)nc4c3)c3c(N)nccn32)C1 [Linsitinib] (partner 1 µM)
quantity-measured: relative viability
reading: 0.989

Now look at this entry.
Name the recorded relative viability for NC(=O)Nc1cc(-c2cccc(F)c2)sc1C(=O)N[C@H]1CCCNC1 [AZD7762] + COc1cccc2cc(-c3nc([C@H]4CC[C@H](C(=O)O)CC4)n4ncnc(N)c34)[nH]c12 [OSI-027] (partner 0.5 µM) .
0.65
